Target: glucosylceramide synthase (GCS) (Homo sapiens)
Construct: The obtained supernatant was used
Sequence (Q16739 whole entry): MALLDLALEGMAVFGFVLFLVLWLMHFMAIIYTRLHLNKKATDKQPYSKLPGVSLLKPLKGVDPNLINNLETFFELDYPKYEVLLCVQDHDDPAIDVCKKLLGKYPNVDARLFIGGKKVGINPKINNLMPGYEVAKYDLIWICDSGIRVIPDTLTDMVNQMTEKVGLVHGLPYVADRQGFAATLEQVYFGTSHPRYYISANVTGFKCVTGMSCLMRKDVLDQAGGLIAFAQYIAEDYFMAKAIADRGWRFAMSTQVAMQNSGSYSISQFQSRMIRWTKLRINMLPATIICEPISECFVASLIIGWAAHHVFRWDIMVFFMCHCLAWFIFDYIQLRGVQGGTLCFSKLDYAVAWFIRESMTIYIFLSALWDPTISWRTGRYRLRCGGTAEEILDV
Assay: GCS enzyme inhibition assay (A549 cell lysate, NBD C6-ceramide, HPLC fluorescence)
Conditions: inhibitory activity against GCS, 37° C., 90 minutes
Procedure: Ibiglustat, known as a GCS inhibitor, was used as a control. After the cells attached to the culture dish were washed with phosphate buffered saline (PBS), the cells were scraped off with a cell scraper and then centrifuged (4000 rpm, 3 min, 4° C.) to collect the cells in a 50 ml tube. […] The obtained supernatant was used for the quantitative analysis of proteins. The amount of proteins was measured using the BCA protein assay kit, using bovine serum albumin as a standard. […]
pIC50: −log10 of the molar value.
Lab note: compare pIC50 against 9. Equal or greater, write condition met. Smaller, write condition not met.

Some solved cases for reference:
> print(dat)
                                   compound                              study.system     assigned.class
1  CC1(C)CC(NC(=O)O[C@@H]2CN3CCC2CC3)c2ccc(-c3cccc(OC(F)(F)F)c3)cc2O1 (stereo partly shown)  glucosylceramide synthase (GCS) (Homo sapiens)  condition not met
2  CC(C)c1cccc(-c2ccc3c(c2)OCCC3NC(=O)O[C@@H]2CN3CCC2CC3)c1 (stereo partly shown)  glucosylceramide synthase (GCS) (Homo sapiens)      condition met
3  CC1(C)COc2cc(-c3cccc4ccncc34)ccc2C1NC(=O)O[C@@H]1CN2CCC1CC2 (stereo partly shown)  glucosylceramide synthase (GCS) (Homo sapiens)      condition met
4  Cc1ccc(-c2ccc3c(c2)C(NC(=O)O[C@@H]2CN4CCC2CC4)CCO3)cc1 (stereo partly shown)  glucosylceramide synthase (GCS) (Homo sapiens)  condition not met
5  O=C(NC1CCOc2cc(-c3ccc(OC(F)F)cc3)ccc21)O[C@@H]1CN2CCC1CC2 (stereo partly shown)  glucosylceramide synthase (GCS) (Homo sapiens)  condition not met
6  COc1cc2c(cc1-c1cccc(F)c1)OCC(C)(C)C2NC(=O)O[C@@H]1CN2CCC1CC2 (stereo partly shown)  glucosylceramide synthase (GCS) (Homo sapiens)      condition met

Identify whether the reported pIC50 of the following compound is 9 or greater: COc1cc2c(cc1-c1ccsc1)OCC(C)(C)C2NC(=O)O[C@@H]1CN2CCC1CC2 (stereo partly shown)
condition met

---

test system: GM1 production in Jurkat cells; test: cells; format: cell-based; details: Homo sapiens, Jurkat, 72 h
Returns: string. Value is yes (1) if measured IC50 is below 1 nM, and no (0) if it is greater than or equal to it.

> print(dat)
                                   compound  assigned.class
1  CC1(C)COc2cc(-c3ccc(C(F)(F)F)cc3)ccc2C1NC(=O)O[C@@H]1CN2CCC1CC2 (stereo partly shown) [Example 211]          no (0)
2  Cn1ncc2ccc(-c3ccc4c(c3)OCC(C)(C)C4NC(=O)O[C@@H]3CN4CCC3CC4)cc21 (stereo partly shown) [Example 196]          no (0)
3  O=C(NC1CCOc2cc(-c3cccc(OC(F)(F)F)c3)ccc21)O[C@@H]1CN2CCC1CC2 (stereo partly shown) [Example 4]          no (0)

Check if IC50 falls below 1 nM for COc1ncc(-c2ccc3c(c2)OCC(C)(C)C3NC(=O)O[C@@H]2CN3CCC2CC3)cc1Cl (stereo partly shown) [Example 215] .
no (0)

Input CCCOc1c(C)cc(-c2ccc3c(c2)OCC(C)(C)C3NC(=O)O[C@@H]2CN3CCC2CC3)cc1C (stereo partly shown) [Example 140] ; condition: IC50 strictly below 1 nM. Does it hold?
yes (1)

Please let me know if COc1ccc(-c2ccc3c(c2)OCC(C)(C)C3NC(=O)O[C@@H]2CN3CCC2CC3)cc1OC (stereo partly shown) [Example 128] shows IC50 below 1 nM.
no (0)
